Where do the numbers come from? From patent US20160376333A1.

- STUDY_SYSTEM: T1, Epstein-Barr virus BHRF1 a.a. 1-161 with C-terminal avi-6his tag (Epstein-Barr virus)
- T1 construct: also called EBV BHRF1; BHRF1-biotin
- T1 chain: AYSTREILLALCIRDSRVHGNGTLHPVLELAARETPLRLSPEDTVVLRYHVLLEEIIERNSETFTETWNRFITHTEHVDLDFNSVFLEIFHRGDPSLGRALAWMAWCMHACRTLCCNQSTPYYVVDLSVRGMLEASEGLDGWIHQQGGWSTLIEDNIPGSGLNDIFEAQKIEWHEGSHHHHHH
- PROTOCOL_DESCRIPTION: yeast display library, FACS sort at 400 nM BHRF1, deep sequencing
Exercise: state measured Log2 enrichment ratio for each of the binders provided.
Please state the figure in log2; there is no need to write the unit.

What the record says about Index 61 (designed binder) GEHLDELLLKLLWLAIQFAERAKLTIELWKLWGKITQSYNEWAEKAARDWIAAALMIIGDMFNHKQKAEEEAKKFAKKGLKRKEELEELLKKLEEFIKRAKKLIKETAQKHEEASKMG : Log2 enrichment ratio is -3.54

What the record says about Index 31 (designed binder) GDQADKIKDKIKDEAKKKADEFKKRLEQFREYLEKVYSDDLKEIYLTIFWIALALMLIGDAFNEKMLLEWEFKERKKRNLRHEEELKEEKKKREEAEKALEWASKYASQVGKEAAEEG : Log2 enrichment ratio is -4.21

What the record says about Index 13 (designed binder) GSKWEEDREKAKREAEKKLDEAKDKLDLYKDFALRFDASDELKTKWTLEWIALALEMIGDVFNYALEAKEFAEKKARNNLLLDDLKDLYKLYLALLAKEESKKAIEEGDKLREAIEKG : Log2 enrichment ratio is -1.6

What the record says about Index 68 (designed binder) GVSIEWAFDFLENKAEEDAREARRLAQKLAEEFFKHSAREEDRAKLTKKWIAVALMIIGDIFNVEQFTKQQGEEFVKRGLRSEDDFKEYLRKMEEKKEEAERIAKRAKDDMLKARDLG : Log2 enrichment ratio is -3.63
